# Test system: Spermatozoa
# method.summary: Spermicidal activity against human spermatozoa assessed as immobilization measured for 60 seconds by visual scoring
# Format: functional
# Design: concentration or dose not given beside the values
observable: Activity (%)
Your answer is read as %, so omit the unit and give the number.

Use these answered entries as a reference point.
1. Cc1nccn1CCC(=O)c1ccccc1    100
2. FC(F)(F)c1ccc(OC/C=C/c2ccccc2)cc1    90
3. FC(F)(F)c1ccc(OC(CCn2nnc3ccccc32)c2ccccc2)cc1 (stereo not given)    70

Moving on to the next molecule.
Prompt: Output measured Activity for this item: CCCCCCCCCc1ccc(OCCOCCOCCOCCOCCOCCOCCOCCOCCO)cc1
Response: 100
